biological target: T1, histidine-tagged human uPAR (Sino#10925-H08H) (human, UniProt Q03405 23-303); assay: BLI (Octet), uPAR on sensor, antibody in solution (avidity)
T1 construct: also called uPAR-His
readout kind: Kd

binder="M5 (antibody, V domains shown, Mouse hybridoma antibody; also called anti-uPAR antibody M5; parental M5) VH: QVQLKESGPGLVAPSQSLSITCTVSGFSLTNYGVHWVRQPPGKDLEWLVVIWSDGGTTYNSALKSRLSISKDNSKSQVFLKMNSLQTDDTAMYYCARGGRSDLFAYWGQGTLVTVSA VL: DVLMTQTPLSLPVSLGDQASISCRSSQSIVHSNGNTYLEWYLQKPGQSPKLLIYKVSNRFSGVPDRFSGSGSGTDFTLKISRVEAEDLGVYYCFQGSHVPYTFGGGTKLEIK" experimental_result="< 1 pM"
